# System: liver
# Test Description: In vivo Fluc activity of FlucmRNA-loaded LNP by in vivo imaging, liver
# Condition Summary: Balb/c mice, FlucmRNA-loaded LNP i.v. 0.1 mg mRNA/kg, 6 hours
Observed Property: Fluc Activity in liver (Avg Radiance [p/s/cm2/sr])
Give the value, in units of Avg Radiance [p/s/cm2/sr], as a plain number.

Example entries begin here.
CCCCCCCC(CCC)C(=O)OCCCCCCC(O)(CCCCCCOC(=O)C(CCC)CCCCCCC)CCCCOC(=O)C1CCN(C)CC1 (stereo not shown) [CL15F 9-3] | 1.16E+06
CCCCCC(CCCCC)C(=O)OCCCCCCC(O)(CCCCCCOC(=O)C(CCCCC)CCCCC)CCCCOC(=O)C1CCN(C)CC1 [CL15F 7-5] | 2.15E+06
CCCCCCCC/C=C\CCCCCCCC(=O)OCCCCCCC(O)(CCCCCCOC(=O)CCCCCCC/C=C\CCCCCCCC)CCCCN(CCC)CCC [CL4H6, reference compound] | 1.06E+07
CCCCCCCCCCC(CCCCCCCCCC)C(=O)OCCCCCCC(O)(CCCCCCOC(=O)C(CCCCCCCCCC)CCCCCCCCCC)CCCCOC(=O)C1CCN(C)CC1 [CL15F 12-10] | 4.33E+07
CCCCCCCC(CCCCCCC)C(=O)OCCCCCCC(O)(CCCCCCOC(=O)C(CCCCCCC)CCCCCCC)CCCCN(CCC)CCC | 1.55E+08

Let's switch to this compound now.
What is its Fluc Activity in liver for liver? Entry: CCCCC(CC)C(=O)OCCCCCCC(O)(CCCCCCOC(=O)C(CC)CCCC)CCCCN(CCC)CCC (stereo not shown)
1.34E+03

Hey, just so you know, these numbers are from patent US12458605B2.
